I'd be grateful if you could share measured kon for these entries.
target: T1, human PDGFRb.hFc (human); test: SPR, mAb captured, 37 C
T1 construct: Soluble dimeric construct with human Fc; also called hPDGFRb.hFc
Answers are plain numbers, in M⁻¹ s⁻¹.

Previously resolved entries follow.
H4H3095S (antibody, human IgG4, V domains shown, human IgG4 Fc (H4H prefix)) VH: EVQLVESGGGLVQPGGSLRLSCGASGFTFSSYWMTWVRQAPGKGLEWVGNINQDGSEKYSVDSVKGRFTISRDNAKNSLYLQMNRVRAEDTAVYYCSRDLVPPRQGDNYYYFGMDVWGLGTTVTVSS VL: DIQMTQSPSTLSASVGDRVIITCRASQNINNWLAWYQQQPGKAPKLLIYEASSLESGVPSRFSGSGSGTEFTLTIGSLQPDDFATYYCQHYNSYSRTFGQGTKVDIK = 425000
H4H3096S (antibody, human IgG4, V domains shown, human IgG4 Fc (H4H prefix)) VH: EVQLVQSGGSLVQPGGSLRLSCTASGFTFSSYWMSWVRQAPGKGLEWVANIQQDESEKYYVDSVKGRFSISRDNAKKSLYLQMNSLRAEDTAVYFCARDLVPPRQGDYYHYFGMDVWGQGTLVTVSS VL: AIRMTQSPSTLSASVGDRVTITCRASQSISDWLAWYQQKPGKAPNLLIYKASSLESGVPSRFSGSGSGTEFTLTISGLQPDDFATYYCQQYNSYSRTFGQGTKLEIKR = 250000

Turning now to a further binder:
IN: Let me know recorded kon for H4H3374N (antibody, human IgG4, V domains shown, human IgG4 Fc (H4H prefix)) VH: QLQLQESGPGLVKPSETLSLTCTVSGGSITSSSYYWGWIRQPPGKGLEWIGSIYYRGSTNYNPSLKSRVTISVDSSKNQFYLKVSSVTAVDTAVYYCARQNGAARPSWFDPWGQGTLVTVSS VL: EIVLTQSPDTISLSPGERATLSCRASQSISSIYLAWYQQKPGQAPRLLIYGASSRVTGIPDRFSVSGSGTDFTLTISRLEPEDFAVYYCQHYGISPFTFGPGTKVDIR , thanks.
OUT: 1.63e+06

Every entry's value here was drawn from patent US20170210813A1.
